Molecular target: T1, VEGF (human, UniProt P15692-4 27-191, limits assumed)
T1 construct: Biotinylated in the KDR-IgG ELISA, amine-coupled to the chip in BIAcore; also called biotinylated VEGF; vascular endothelial growth factor
T1 sequence (P15692 other isoform, or with tags, fused parts or gaps limits assumed): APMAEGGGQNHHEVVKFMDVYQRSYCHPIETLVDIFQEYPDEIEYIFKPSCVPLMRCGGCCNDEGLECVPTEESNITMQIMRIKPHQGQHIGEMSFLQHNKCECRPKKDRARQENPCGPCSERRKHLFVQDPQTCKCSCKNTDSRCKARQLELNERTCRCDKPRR
Assay: competitive phage-ELISA, relative to pY0192
measuredParameter: IC50 (mut)/IC50 (wt)

Would you please look over these solved cases?
[[record]]
binder = "pY0192 VH T30A (Fab, V domains shown, Ala-scan variant of pY0192; Fab on phage) VH: EVQLVESGGGLVQPGGSLRLSCAASGYTFANYGINWVRQAPGKGLEWVGWINTYTGEPTYAADFKRRFTFSLDTSKSTAYLQMNSLRAEDTAVYYCAKYPHYYGSSHWYFDVWGQGTL VL: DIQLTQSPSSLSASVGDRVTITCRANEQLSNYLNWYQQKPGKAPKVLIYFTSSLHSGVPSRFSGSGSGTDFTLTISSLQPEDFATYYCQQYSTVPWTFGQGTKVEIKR"
testresult = "1 ratio"

[[record]]
binder = "pY0192 VH G56A (Fab, V domains shown, Ala-scan variant of pY0192; Fab on phage) VH: EVQLVESGGGLVQPGGSLRLSCAASGYTFTNYGINWVRQAPGKGLEWVGWINTYTAEPTYAADFKRRFTFSLDTSKSTAYLQMNSLRAEDTAVYYCAKYPHYYGSSHWYFDVWGQGTL VL: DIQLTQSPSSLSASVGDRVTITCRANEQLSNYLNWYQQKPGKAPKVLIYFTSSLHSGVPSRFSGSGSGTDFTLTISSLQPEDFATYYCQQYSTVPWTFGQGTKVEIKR"
testresult = "1 ratio"


Alright, here's another binder for you.
IC50 (mut)/IC50 (wt) reported for this binder pY0192 VH G33A (Fab, V domains shown, Ala-scan variant of pY0192; Fab on phage) VH: EVQLVESGGGLVQPGGSLRLSCAASGYTFTNYAINWVRQAPGKGLEWVGWINTYTGEPTYAADFKRRFTFSLDTSKSTAYLQMNSLRAEDTAVYYCAKYPHYYGSSHWYFDVWGQGTL VL: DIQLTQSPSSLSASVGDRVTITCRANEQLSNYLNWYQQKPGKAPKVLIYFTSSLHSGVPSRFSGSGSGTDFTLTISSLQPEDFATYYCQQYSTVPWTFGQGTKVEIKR : 6 ratio
